Target: PPAR-δ (Homo sapiens)
Sequence (Q03181 211-439 limits assumed): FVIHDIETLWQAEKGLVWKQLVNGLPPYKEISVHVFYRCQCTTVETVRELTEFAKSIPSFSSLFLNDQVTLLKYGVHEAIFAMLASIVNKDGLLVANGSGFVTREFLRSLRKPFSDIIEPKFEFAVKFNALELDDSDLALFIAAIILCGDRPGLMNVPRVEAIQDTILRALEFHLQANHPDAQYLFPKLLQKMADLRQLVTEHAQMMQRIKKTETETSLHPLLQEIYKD
Assay: TR-FRET LanthaScreen PPAR coactivator recruit assay, PPAR-δ (C33 peptide)
pEC50: −log10 of the molar value.
measuredProperty: pEC50

compound: O=C(COc1ccc2c(ccn2Cc2ccccc2C(=O)O)c1)Nc1ccc(Cl)cc1Cl [Compound 12]
studySystem: PPAR-δ (Homo sapiens)
pEC50: 4.49
//
compound: O=C(COc1ccc2c(c1)c(Cc1ccccc1)cn2Cc1ccccc1C(=O)O)Nc1ccc(Cl)cc1Cl [Compound 18]
studySystem: PPAR-δ (Homo sapiens)
pEC50: 4.55
